B1: library; a variant is named by its letters at N, in order (parent)
chain: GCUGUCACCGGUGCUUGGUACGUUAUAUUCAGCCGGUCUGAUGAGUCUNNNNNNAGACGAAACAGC

Variants of: B1
Assay: normalized RNA/DNA level with ligand (relative to sTRSVctl = 100) (log10 (% of sTRSVctl)); HEK293T overexpressing SLC46A1; ligand concentration (+) RNA-Seq: 6 mM; higher = less ribozyme self-cleavage, higher mRNA level
Details: with (6R,S)-folinic acid; ligand present: yes
readout: normalized RNA/DNA level with ligand (log10)
Please reply with the number alone, leaving off any unit.

alteration	quantitative.result
UGAUAG	1.96
UCCCGU	2.04
AUUGCA	1.98
CUCGCG	2.03
AGCAGU	2.01

// query normalized RNA/DNA level with ligand (log10) value for entry `GCUAGC` 2.02

Then this variant: `CCCUCU` 2.09

Further, for `UACGAG` ? 1.95

Also `UCUCUU` ? 2.06
